Data provenance: paper PMC12136788

So I've got a bunch of binders here, and I need their binding signal values.
- system_tested: MSI1 full-length (mouse, UniProt Q61474 1-362)
- Sequence (Q61474 whole entry): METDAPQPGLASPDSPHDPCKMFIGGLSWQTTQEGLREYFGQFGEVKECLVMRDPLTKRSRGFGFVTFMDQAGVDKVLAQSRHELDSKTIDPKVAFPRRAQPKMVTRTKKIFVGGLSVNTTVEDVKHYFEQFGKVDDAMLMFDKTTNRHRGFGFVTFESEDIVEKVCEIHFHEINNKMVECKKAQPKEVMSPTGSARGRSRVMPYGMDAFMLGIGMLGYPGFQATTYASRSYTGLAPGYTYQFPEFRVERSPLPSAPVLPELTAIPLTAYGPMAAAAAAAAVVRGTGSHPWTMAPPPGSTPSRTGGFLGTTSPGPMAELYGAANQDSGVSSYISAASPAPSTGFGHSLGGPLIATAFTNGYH
- test_protocol: nsRBNS (natural sequence RNA bind-n-seq); RBNS binding buffer (assumed for nsRBNS): 25 mM Tris pH 7.5, 150 mM KCl, 3 mM MgCl2, 0.01% Triton X-100, 500 ug/ml BSA, 20 U/ml SUPERase-In, 4 C; UNK is unkempt and MSI1 is Musashi-1; names of the RNAs are library labels; protein concentration not given here; high values mean tight binding
Whole data set: some 5,800 sequences, median “enrichment r” near 0.54, cut for the highest 2% near 16. Many of the other results were omitted from the sample, so the highest values are more common in it than they were.
# unit: enrichment R | format: bare number

Prompt: Provide only the value of recorded binding signal for chr8:86558718:86558819:+|3pUTR|ENSG00000085719|unk|total|mutant (ssRNA) RNA: GGGAGUUCUACAGUCCGACGAUCCUGUUGUUGUUUUUGUUUACUUUCAUAUGAUGAAAAUGCUGUGUUUAAGUGUUUGUCAACCGGAAGAAUGGAAAACUGUUGGGAUGAUGUGGUUUGCAGGUUGCUGUGCCUGAUUCACAGCAACAGAGGAUUGAGCAUCA
Response: 0.342

Prompt: Provide only the value of recorded binding signal for ENSG00000069329:stop:overlap|stop_codon|ENSG00000069329|stop_codon|NA|stop_codon (ssRNA) RNA: GGGAGUUCUACAGUCCGACGAUCUGGAGAAGGGGCCCCACAGACCGUUCGGGAUUAAGACCAGCCCGAUUUGGCCUGCGGGAUAGGGGACAGCAGGAGGAAGGCCGCGGGCAGGCUGAUCCGGGCCGGGGUGGGCGGCGGCUCCAACAGAGGAUUGAGCAUCA
Response: 0.367

Prompt: Provide only the value of recorded binding signal for chr5:138873012:138874556:-|CDS|ENSG00000146006|control|control|control (ssRNA) RNA: GGGAGUUCUACAGUCCGACGAUCUUUAUUAUUUUUAUAGUGUUCAUCUCCAGGAAGUGCUGCCCUCCCACUUUAAGAAGAAUUAGGCAGUGCUCAAUGGUUCAGAACCACAGGCAGCUCCGAUCCCAAACACGACUCCAUAUGCAACAGAGGAUUGAGCAUCA
Response: 1.88
